Please provide measured Normalized EE % D-7 for the entries that follow.
assay: Stability of mRNA-LNPs according to storage temperature and duration; type: physicochemical; conditions: fLuc mRNA-LNP stored at 4° C., day 7
Give the quantity in %, number only.

Looking up CCCCCCCCCCCOC(=O)CCCCCN(CCCCCCCC(=O)OC(CCCCCCCC)CCCCCCCC)CC(O)CCCCNC(=O)c1cn(C)cn1 (stereo not drawn) , I see its Normalized EE % D-7 listed as 89.9

Entry CCCCCCCCCCCOC(=O)CCCCCN(CCCCCCCC(=O)OC(CCCCCCCC)CCCCCCCC)CC(O)CCCCNC(=O)c1cccn1C (stereo not drawn) — recorded Normalized EE % D-7 = 85.3

What the record says about CCCCCCCCCCCOC(=O)CCCCCN(CCCCCCCC(=O)OC(CCCCCCCC)CCCCCCCC)CC(O)CCCCNC(=O)c1nccn1C (stereo not drawn) : Normalized EE % D-7 is 89.1

###

assay: Stability of mRNA-LNPs according to storage temperature and duration; type: physicochemical; conditions: fLuc mRNA-LNP stored at 4° C., day 7
REPORTED METRIC: Normalized EE % D-7 (%)
Please state the figure in %; there is no need to write the unit.

The measured Normalized EE % D-7 associated with CCCCCCCCCCCOC(=O)CCCCCN(CCCCCCCC(=O)OC(CCCCCCCC)CCCCCCCC)CC(O)CCCCNC(=O)c1cncn1C (stereo not shown) [Compound 38] reads 91.1

Item: CCCCCCCCCCCOC(=O)CCCCCN(CCCCCCCC(=O)OC(CCCCCCCC)CCCCCCCC)CC(O)CCCCNC(=O)c1c[nH]cn1 (stereo not shown) [Compound 34] | Normalized EE % D-7: 92.9

Note to self: Normalized EE % D-7 recorded for CCCCCCCCCCCOC(=O)CCCCCN(CCCCCCCC(=O)OC(CCCCCCCC)CCCCCCCC)CC(O)CCCCNC(=O)c1cnc(O)n1C (stereo not shown) [Compound 40] was 89.0

Record CCCCCCCCCCCOC(=O)CCCCCN(CCCCCCCC(=O)OC(CCCCCCCC)CCCCCCCC)CC(O)CCCCNC(=O)c1ccc[nH]1 (stereo not shown) [Compound 16] . Reported Normalized EE % D-7: 91.5

###

Field: PDI D-1. Provide a value for each of the compounds that follow.
assay: Stability of mRNA-LNPs according to storage temperature and duration; type: physicochemical; conditions: fLuc mRNA-LNP stored at 25° C., day 1
API note: the answer field is a bare number with no unit suffix.

// PDI D-1 lookup, compound = CCCCCCCCCCCOC(=O)CCCCCN(CCCCCCCC(=O)OC(CCCCCCCC)CCCCCCCC)CC(O)CCCCNC(=O)c1ccc[nH]1 (stereo not shown) , result: 0.101

The compound identified as CCCCCCCCCCCOC(=O)CCCCCN(CCCCCCCC(=O)OC(CCCCCCCC)CCCCCCCC)CC(O)CCCCNC(=O)c1ccn(C)c1 (stereo not shown) registered its PDI D-1 at 0.193

Data point: CCCCCCCCCCCOC(=O)CCCCCN(CCCCCCCC(=O)OC(CCCCCCCC)CCCCCCCC)CC(O)CCCCNC(=O)c1c[nH]c(O)n1 (stereo not shown) ; PDI D-1 = 0.040

Field PDI D-1 (entry CCCCCCCCCCCOC(=O)CCCCCN(CCCCCCCC(=O)OC(CCCCCCCC)CCCCCCCC)CC(O)CCCCNC(=O)c1cnc(O)n1C (stereo not shown) ) reads 0.154

Query CCCCCCCCCCCOC(=O)CCCCCN(CCCCCCCC(=O)OC(CCCCCCCC)CCCCCCCC)CC(O)CCCCNC(=O)c1c[nH]cn1 (stereo not shown) yields PDI D-1 of 0.143

So, CCCCC/C=C\C/C=C\CCCCCCCCC(CCCCCCCC/C=C\C/C=C\CCCCC)OC(=O)CCCN(C)C [MC3, DLin-MC3-DMA, reference compound] ? Its PDI D-1 was 0.174

Lab book: PDI D-1 of CCCCCCCCCCCOC(=O)CCCCCN(CCCCCCCC(=O)OC(CCCCCCCC)CCCCCCCC)CC(O)CCCCNC(=O)c1cccn1C (stereo not shown) noted as 0.145

Quick note, PDI D-1 for CCCCCCCCCCCOC(=O)CCCCCN(CCCCCCCC(=O)OC(CCCCCCCC)CCCCCCCC)CC(O)CCCCNC(=O)c1c(O)ccn1C (stereo not shown) landed at 0.114

Form field PDI D-1, entry CCCCCCCCCCCOC(=O)CCCCCN(CCCCCCCC(=O)OC(CCCCCCCC)CCCCCCCC)CC(O)CCCCNC(=O)c1ncc[nH]1 (stereo not shown) : 0.145

Lab note: measured PDI D-1 of CCCCCCCCCCCOC(=O)CCCCCN(CCCCCCCC(=O)OC(CCCCCCCC)CCCCCCCC)CC(O)CCCCNC(=O)c1cn(C)cn1 (stereo not shown) was 0.154

meta.source: patent US20260184669A1
